- ASSAY TARGET: human ether-à-go-go-related gene (hERG) potassium channel (human)
- RUN DESCRIPTION: primary screen, population patch clamp on CHO cells stably expressing hERG; higher = less effect of the substance
In all, about 310,000 compounds went through this assay and about 14,000 (4.5%) showed an effect of 50% or more. Effects have a minus sign here. For the sample, strong results were picked, then their nearest neighbours and some compounds at random.
Measured hERG current change (%, negative = inhibition) at 10uM of individual entries
Mention the unit after the number when you answer.

Recorded hERG current change (%, negative = inhibition) at 10uM, per entry:
• CCOC(=O)c1oc2ccccc2c1COC(=O)C(C)NC(=O)c1ccco1 (stereo not drawn) = -16.5%
• CCC(CC)NC(=O)c1cc(S(=O)(=O)N2CCCCC2)ccc1N1CCOCC1 = -20.3%
• Cc1occc1-c1nnc(SCC(=O)Nc2nccs2)n1CCc1ccccc1 = -60.3%
• C=CCN(c1ccccc1)S(=O)(=O)c1cccc(C(=O)NC2CCC(O)CC2)c1 (stereo not drawn) = -7.48%

Incoming: Return hERG current change (%, negative = inhibition) at 10uM (reported value) for this compound: CC(C)CCCC(C)NC(=O)c1cc(S(=O)(=O)N2CCCCC2)ccc1N1CCOCC1 (stereo not drawn)
Outgoing: -36.8%

Incoming: In one line, give reported hERG current change (%, negative = inhibition) at 10uM of the entry CCC(C)c1ccc(NC(=S)N2CCCC2)cc1 (stereo not drawn) .
Outgoing: 1.86%

Incoming: Give a short answer stating reported hERG current change (%, negative = inhibition) at 10uM for "COC(=O)CCc1nc2c(C#N)c(-c3ccc(Cl)cc3)ccn2n1" .
Outgoing: -2.07%

Incoming: Quickly give me recorded hERG current change (%, negative = inhibition) at 10uM for "CCn1c(SCC(=O)Nc2nc(C)cs2)nnc1-c1ccoc1C"
Outgoing: -1.96%

Incoming: For the compound "O=C(NCCN1CCOCC1)c1cccc(S(=O)(=O)Nc2ccc(Br)cc2)c1" , give its measured hERG current change (%, negative = inhibition) at 10uM value.
Outgoing: -20.4%

Incoming: // Input: Cc1cccc(CC2SC(N3CCN(c4ccccc4)CC3)=NC2=O)c1 (stereo not drawn) . Output its hERG current change (%, negative = inhibition) at 10uM only.
Outgoing: -53.5%

Incoming: Tell us which hERG current change (%, negative = inhibition) at 10uM value is on record for Cc1ccc(S(=O)(=O)Nc2cccc(C(=O)NCC3CCCO3)c2)cc1F (stereo not drawn)
Outgoing: 2.12%

Incoming: Give a short answer stating reported hERG current change (%, negative = inhibition) at 10uM for Cc1occc1-c1nnc(SCC(=O)NC(C)(C)C)n1C(C)c1ccccc1 (stereo not drawn) .
Outgoing: -11.8%

Incoming: Give a short answer stating reported hERG current change (%, negative = inhibition) at 10uM for "Cc1ccc(S(=O)(=O)Nc2cccc(C(=O)NC3CCN(Cc4ccccc4)CC3)c2)cc1F" .
Outgoing: -80.6%

====

Parameter hERG current change (%, negative = inhibition) at 10uM: see the listing below.
- ASSAY TARGET: human ether-à-go-go-related gene (hERG) potassium channel (human, UniProt Q12809)
- Sequence (Q12809 whole entry, looked up): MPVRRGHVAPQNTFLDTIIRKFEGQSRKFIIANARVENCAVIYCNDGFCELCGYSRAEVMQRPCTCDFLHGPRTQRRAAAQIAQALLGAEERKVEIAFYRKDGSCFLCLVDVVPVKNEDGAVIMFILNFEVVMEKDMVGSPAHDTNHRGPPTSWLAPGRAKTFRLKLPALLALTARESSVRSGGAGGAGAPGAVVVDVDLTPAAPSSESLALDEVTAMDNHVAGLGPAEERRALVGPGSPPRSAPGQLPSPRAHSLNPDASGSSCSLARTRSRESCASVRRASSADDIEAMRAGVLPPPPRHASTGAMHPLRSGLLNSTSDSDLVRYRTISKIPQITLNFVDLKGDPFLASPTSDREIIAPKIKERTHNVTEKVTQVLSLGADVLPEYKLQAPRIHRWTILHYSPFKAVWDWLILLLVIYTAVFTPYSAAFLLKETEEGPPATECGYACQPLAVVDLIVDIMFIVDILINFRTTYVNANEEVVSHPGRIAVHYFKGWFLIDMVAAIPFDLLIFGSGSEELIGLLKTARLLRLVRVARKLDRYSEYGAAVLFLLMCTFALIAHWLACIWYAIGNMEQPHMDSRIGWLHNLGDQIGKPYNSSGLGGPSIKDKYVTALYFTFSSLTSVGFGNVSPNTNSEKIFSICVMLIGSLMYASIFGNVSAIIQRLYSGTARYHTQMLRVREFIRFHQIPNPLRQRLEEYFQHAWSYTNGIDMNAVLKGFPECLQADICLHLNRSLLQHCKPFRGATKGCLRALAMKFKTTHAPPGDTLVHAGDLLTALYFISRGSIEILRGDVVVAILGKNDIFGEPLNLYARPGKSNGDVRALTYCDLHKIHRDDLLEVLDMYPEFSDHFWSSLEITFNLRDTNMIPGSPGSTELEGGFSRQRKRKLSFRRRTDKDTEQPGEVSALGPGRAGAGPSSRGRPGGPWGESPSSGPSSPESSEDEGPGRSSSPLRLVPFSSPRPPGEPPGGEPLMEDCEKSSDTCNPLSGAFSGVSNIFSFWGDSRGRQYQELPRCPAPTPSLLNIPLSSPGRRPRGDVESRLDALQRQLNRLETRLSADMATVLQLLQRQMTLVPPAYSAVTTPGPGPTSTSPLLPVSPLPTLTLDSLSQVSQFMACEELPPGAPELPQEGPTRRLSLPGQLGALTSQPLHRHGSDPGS
- RUN DESCRIPTION: primary screen, population patch clamp on CHO cells stably expressing hERG; higher = less effect of the substance
- Description: Briefly, Chinese hamster ovary (CHO) cells stably expressing the hERG channel were dislodged from tissue culture flasks and dispensed into PPC plates. […] During the recording, background leak currents were estimated by a 100 ms step to -80 mV from an initial holding potential of -70 mV and subtracted from the subsequent current measurement. The campaign was conducted in two phases using slight differences in recording protocol. […]
Out of some 310,000 compounds screened, about 14,000 (4.5%) showed an effect of 50% or more. The effect is printed as a negative number. Only a selection was taken, and strong results are over-represented in it overall.
# number only, unit % dropped from output

Completed entries (count: 6):
- Cc1ccc(N2C(=O)[C@@H]3Cc4ccccc4CN3C2=O)cc1: -3.34
- CC(C)NC1=C(Cl)C(=O)c2ccccc2C1=O: 4.34
- COc1ccc(NC(=O)c2sc3nc(C)nc(N4CCN(c5ccccn5)CC4)c3c2C)cc1Cl: -3.04
- COc1cc(C)c(C(=O)Oc2cc(C)c(C(=O)O)c(O)c2)c(O)c1: 11.5
- Cc1ccccc1C(=O)NC(NC(=S)Nc1ccc(S(N)(=O)=O)cc1)C(Cl)(Cl)Cl (stereo not shown): 19.3
- Cc1cc2c(c(=O)n1CCN(C)C)C(c1ccncc1)C(C#N)=C(N)O2 (stereo not shown): 19.6

Incoming: Report hERG current change (%, negative = inhibition) at 10uM for "CCN(Cc1ccccc1)C(=O)CCc1nnc(CCCc2ccccc2)o1"
Outgoing: 21.1

Incoming: Look up hERG current change (%, negative = inhibition) at 10uM of "CCNCCC(=O)N1c2ccccc2Sc2ccc(NC(=O)OCC)cc21.Cl" and report it.
Outgoing: -29.6

Incoming: # return recorded hERG current change (%, negative = inhibition) at 10uM for entry "Cc1cccc(C(=O)NNC(=O)c2ccc(Br)cc2)c1"
Outgoing: 4.62

Incoming: For COc1cccc(OCC(O)CN2CCC(Cc3ccccc3)CC2)c1.Cl (stereo not shown) , write its hERG current change (%, negative = inhibition) at 10uM.
Outgoing: -70.4

====

- ASSAY TARGET: human ether-à-go-go-related gene (hERG) potassium channel (human);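 also: peak tail current of the secondary pulse compared with the same well before compound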
- RUN DESCRIPTION: primary screen, population patch clamp on CHO cells stably expressing hERG; higher = less effect of the substance
Screen size: about 310,000 compounds; about 14,000 (4.5%) showed an effect of 50% or more. Effects have a minus sign here. The full list was thinned out, with strong results kept by preference.
MEASUREMENT NAME: hERG current change (%, negative = inhibition) at 10uM (%)
Write down the numeric answer in % and omit the unit.

* CCOC(=O)C1(Cc2cccc(OC)c2)CCN(C/C=C/c2ccc(OC)cc2)CC1 | -72.3
* Cl.OC(COc1ccc2c(c1)OCO2)CN1CCN(c2ccc(F)cc2)CC1 (stereo not shown) | -66.1
* CC1=NN(C(C)C)C(=O)C1 | 8.62
* COc1ccc(OCC(O)CN2CCN(CC(O)COc3ccc(OC)cc3)CC2)cc1 (stereo not shown) | -47.5
* CC(C)(C)c1ccc(OCC(O)CN2CCOCC2)cc1 (stereo not shown) | -3.19
* COc1cc(OC)nc(Oc2ccccc2C(=O)Oc2cccc(C)c2)n1 | 7.95
* Cc1cccc(C)c1NC(=O)CNc1ccccc1 | 5.02
* O=C(CSc1nnc2c(Cl)cc(Cl)cn12)N1CCOCC1 | -6.52
* O=C(CSc1nnc2c(Cl)cc(Cl)cn12)N1CCN(c2ccc(F)cc2)CC1 | -51.5
* COc1ccc(N2CCN(CC(O)COc3ccc(F)cc3)CC2)cc1.Cl (stereo not shown) | -69.9

Incoming: Report value only: hERG current change (%, negative = inhibition) at 10uM, human ether-à-go-go-related gene (hERG) potassium channel (human), "COc1ccccc1CNC(=O)c1ccc(-c2ccccc2Cl)o1"
Outgoing: 4.13

Incoming: Recall the reported hERG current change (%, negative = inhibition) at 10uM of CC1CCN(CC(O)COc2ccc(F)cc2)CC1 (stereo not shown) when tested on human ether-à-go-go-related gene (hERG) potassium channel (human).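 Also: peak tail current of the secondary pulse compared with the same well before compound.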
Outgoing: -37.7

Incoming: Write down the reported hERG current change (%, negative = inhibition) at 10uM (system: human ether-à-go-go-related gene (hERG) potassium channel (human)) of "CN1CCN(C(=S)c2ccc(Cl)cc2)CC1"
Outgoing: 3.39

Incoming: Report value only: hERG current change (%, negative = inhibition) at 10uM, human ether-à-go-go-related gene (hERG) potassium channel (human), "Cn1nnnc1SCC(=O)N1CCN(c2ccccc2)CC1"
Outgoing: 12.4

Incoming: // fetch hERG current change (%, negative = inhibition) at 10uM; item: CCOC(=O)C1CCN(CC(O)COc2ccc(C(C)(C)C)cc2)CC1.Cl (stereo not shown) ; system: human ether-à-go-go-related gene (hERG) potassium channel (human);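 also: peak tail current of the secondary pulse compared with the same well before compound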
Outgoing: -70.4

Incoming: State measured hERG current change (%, negative = inhibition) at 10uM of the molecule "CCOC(=O)C1(Cc2cccc(OC)c2)CCN(CC=C(C)C)CC1" with human ether-à-go-go-related gene (hERG) potassium channel (human).
Outgoing: -22

Incoming: Using human ether-à-go-go-related gene (hERG) potassium channel (human) as the test system, report measured hERG current change (%, negative = inhibition) at 10uM of "CN(CC(=O)Nc1ccc(F)cc1)C(=O)c1cc(-c2ccco2)nc2ccccc12" .
Outgoing: -32.5

====

- ASSAY TARGET: human ether-à-go-go-related gene (hERG) potassium channel (human, UniProt Q12809);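 also: peak tail current of the secondary pulse compared with the same well before compound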
- RUN DESCRIPTION: primary screen, population patch clamp on CHO cells stably expressing hERG; higher = less effect of the substance
- Protocol: Briefly, Chinese hamster ovary (CHO) cells stably expressing the hERG channel were dislodged from tissue culture flasks and dispensed into PPC plates. […] During the recording, background leak currents were estimated by a 100 ms step to -80 mV from an initial holding potential of -70 mV and subtracted from the subsequent current measurement. The campaign was conducted in two phases using slight differences in recording protocol. […]
The campaign covered roughly 310,000 compounds. About 14,000 (4.5%) showed an effect of 50% or more. The effect is printed as a negative number. Shown is part of a subset that was picked to be rich in strong results.
Rule: hERG current change (%, negative = inhibition) at 10uM of -10% or more gives TRUE; anything lower gives FALSE.

Worked examples follow.
* COc1ccc(C2(CNS(=O)(=O)c3ccccc3)CCOCC2)cc1 | TRUE
* O=C(CCc1nc2ccccc2c(=O)[nH]1)Nc1cc(C(F)(F)F)ccc1N1CCOCC1 | FALSE

Incoming: Does the compound CN(Cc1cnn(C)c1)C(=O)C1CCC(=O)N(Cc2cccc(F)c2)C1 (stereo not drawn) have recorded hERG current change (%, negative = inhibition) at 10uM that is -10% or more?
Outgoing: FALSE

Incoming: Could you tell me if the measured hERG current change (%, negative = inhibition) at 10uM of "Cc1ccc(CN2[C@@H](CC(C)C)COCCS2(=O)=O)cc1" reaches -10% or more?
Outgoing: TRUE
